Target: furin, P09958;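 further: purified furin at 1:10 enzyme:substrate in 50 mM HEPES pH 7.5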
Sequence (P09958 whole entry): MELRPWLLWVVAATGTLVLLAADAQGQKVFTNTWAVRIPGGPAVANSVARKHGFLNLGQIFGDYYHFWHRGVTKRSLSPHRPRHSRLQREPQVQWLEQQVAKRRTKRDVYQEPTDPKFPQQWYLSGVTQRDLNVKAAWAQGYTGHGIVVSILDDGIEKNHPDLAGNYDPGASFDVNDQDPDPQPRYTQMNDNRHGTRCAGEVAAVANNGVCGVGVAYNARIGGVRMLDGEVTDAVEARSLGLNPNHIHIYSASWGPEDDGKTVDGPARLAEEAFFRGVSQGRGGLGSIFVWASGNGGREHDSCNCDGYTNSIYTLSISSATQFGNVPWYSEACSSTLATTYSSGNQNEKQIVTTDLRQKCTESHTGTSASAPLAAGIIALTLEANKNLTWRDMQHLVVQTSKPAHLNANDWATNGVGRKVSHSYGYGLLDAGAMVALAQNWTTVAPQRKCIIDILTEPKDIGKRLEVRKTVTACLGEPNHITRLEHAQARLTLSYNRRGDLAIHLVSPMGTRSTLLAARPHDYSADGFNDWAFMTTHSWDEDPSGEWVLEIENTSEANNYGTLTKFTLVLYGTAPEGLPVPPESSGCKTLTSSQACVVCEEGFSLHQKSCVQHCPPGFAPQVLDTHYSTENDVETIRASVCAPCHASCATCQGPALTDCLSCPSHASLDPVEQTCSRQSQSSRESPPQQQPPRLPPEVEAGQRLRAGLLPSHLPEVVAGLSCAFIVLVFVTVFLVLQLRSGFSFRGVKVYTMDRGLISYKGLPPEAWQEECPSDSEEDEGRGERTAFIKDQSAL
Test: furin cleavage Z-score vs untreated control; higher = more cleavage, active = 3.5 or more, inactive = 1 or less, 8 variable residues between constant flanks
Conditions: 30 min
The other results are listed elsewhere or left out. How many sequences the whole screen found active is unknown.
Outcome codes: Yes for active, No for inactive

[
  {
    "residue_sequence": "CARVKRRIENAGNASASA [FS-2533]",
    "label": "Yes"
  },
  {
    "residue_sequence": "CATAKREKRWAGNASASA [FS-1421]",
    "label": "Yes"
  },
  {
    "residue_sequence": "CARVKRFIQEAGNASASA [FS-2099]",
    "label": "Yes"
  },
  {
    "residue_sequence": "CAHRCRHKRWAGNASASA [FS-133]",
    "label": "Yes"
  },
  {
    "residue_sequence": "CAGPDQRPYCAGNASASA [HC400]",
    "label": "No"
  },
  {
    "residue_sequence": "CAEVVTSVWVAGNASASA [HC2210]",
    "label": "No"
  },
  {
    "residue_sequence": "CACRARGMRAAGNASASA [FS-15]",
    "label": "No"
  }
]
